target: ErbB2 insYVMA (HER2-YVMA, SEQ ID NO: 2) (Homo sapiens, UniProt P04626, INS775YVMA/P1170A); assay: biochemical; details: ErbB2 insYVMA enzyme assay; read-out: Assay 1 IC50
Sequence (P04626 with tags, fused parts or gaps INS775YVMA/P1170A limits assumed): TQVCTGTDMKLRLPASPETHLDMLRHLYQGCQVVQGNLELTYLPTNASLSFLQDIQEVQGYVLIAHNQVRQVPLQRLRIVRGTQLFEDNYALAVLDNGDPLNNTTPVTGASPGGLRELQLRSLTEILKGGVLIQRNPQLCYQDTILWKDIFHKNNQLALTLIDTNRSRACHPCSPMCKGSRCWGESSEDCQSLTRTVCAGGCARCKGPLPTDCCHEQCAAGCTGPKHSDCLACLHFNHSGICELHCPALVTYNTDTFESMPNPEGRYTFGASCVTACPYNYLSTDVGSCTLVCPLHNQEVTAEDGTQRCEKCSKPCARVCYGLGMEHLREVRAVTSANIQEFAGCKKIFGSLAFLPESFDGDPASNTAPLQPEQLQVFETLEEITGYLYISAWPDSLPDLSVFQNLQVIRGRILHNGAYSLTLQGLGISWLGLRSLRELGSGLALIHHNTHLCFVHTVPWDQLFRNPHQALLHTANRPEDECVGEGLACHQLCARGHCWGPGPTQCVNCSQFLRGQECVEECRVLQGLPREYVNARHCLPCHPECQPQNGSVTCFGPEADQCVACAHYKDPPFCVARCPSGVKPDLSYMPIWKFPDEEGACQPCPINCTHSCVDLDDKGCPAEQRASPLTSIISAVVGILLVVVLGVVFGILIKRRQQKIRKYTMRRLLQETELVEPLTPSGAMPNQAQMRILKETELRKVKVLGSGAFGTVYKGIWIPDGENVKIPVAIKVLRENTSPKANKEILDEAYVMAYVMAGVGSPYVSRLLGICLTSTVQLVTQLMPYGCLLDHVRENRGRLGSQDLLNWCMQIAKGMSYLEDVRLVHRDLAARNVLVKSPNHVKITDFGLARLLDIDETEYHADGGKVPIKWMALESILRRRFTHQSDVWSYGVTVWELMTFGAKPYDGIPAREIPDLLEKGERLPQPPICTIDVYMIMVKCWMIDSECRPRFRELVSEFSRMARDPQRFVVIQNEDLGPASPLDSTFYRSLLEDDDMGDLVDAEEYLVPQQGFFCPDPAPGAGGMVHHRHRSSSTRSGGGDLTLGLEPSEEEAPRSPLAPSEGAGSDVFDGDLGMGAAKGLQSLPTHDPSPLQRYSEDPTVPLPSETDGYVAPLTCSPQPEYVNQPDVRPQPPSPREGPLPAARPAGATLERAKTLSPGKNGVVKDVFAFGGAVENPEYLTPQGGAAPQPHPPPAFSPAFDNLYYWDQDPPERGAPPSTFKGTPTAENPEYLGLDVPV
reported-endpoint: IC50 (nM)
Provide only the numeric value, understood in nM.

Below are worked cases with known answers.
# compound, IC50 / nM
measured = [
    ("Cc1cc(Nc2ncnc3cnc(N4CC(COC(F)F)C4)nc23)ccc1Oc1ccc2c(c1)ncn2C [Example 245]", 50.4),
    ("Cc1cc(Nc2ncnc3cnc(N4CCC45COC5)nc23)ccc1Oc1ccn2ncnc2c1 [Example 369]", 7.3),
    ("Cc1cc(Nc2ncnc3cnc(OCC(F)F)nc23)ccc1Oc1ccc2c(c1)ncn2C [Example 177]", 53.2),
    ("Cc1cc(Nc2ncnc3cnc(N4CC5(CCN(C)C5=O)C4)nc23)ccc1Oc1ccc2c(c1)ncn2C [Example 425]", 68.1),
    ("CN(c1ncc2ncnc(Nc3ccc(Oc4ccc5c(c4)ncn5C)c(Cl)c3)c2n1)[C@H]1CCOC1 [Example 117]", 46.7),
    ("FC(F)(F)[C@H]1CN(c2ncc3ncnc(Nc4ccc(Oc5ccn6ncnc6c5)c(Cl)c4)c3n2)CCN1 [Example 429]", 11.2),
]

Now examine the next entry.
Field IC50 (entry CO[C@@H]1CN(c2ncc3ncnc(Nc4ccc(Oc5ccc6c(c5)ncn6C)c(C)c4)c3n2)C[C@H]1O (racemic) [Example 107] ) reads 30.8

###

molecular target: ErbB2 with Exon 20 YVMA insertion (HER2-YVMA) (Homo sapiens (Human), UniProt P04626, INS775YVMA); test: Cellular phosphorylation assay, constitutive ErbB2 phosphorylation (Y1196) in engineered NIH 3T3 cells, Assay 4
Sequence (P04626 other isoform, or with tags, fused parts or gaps ins YVMA behind 775): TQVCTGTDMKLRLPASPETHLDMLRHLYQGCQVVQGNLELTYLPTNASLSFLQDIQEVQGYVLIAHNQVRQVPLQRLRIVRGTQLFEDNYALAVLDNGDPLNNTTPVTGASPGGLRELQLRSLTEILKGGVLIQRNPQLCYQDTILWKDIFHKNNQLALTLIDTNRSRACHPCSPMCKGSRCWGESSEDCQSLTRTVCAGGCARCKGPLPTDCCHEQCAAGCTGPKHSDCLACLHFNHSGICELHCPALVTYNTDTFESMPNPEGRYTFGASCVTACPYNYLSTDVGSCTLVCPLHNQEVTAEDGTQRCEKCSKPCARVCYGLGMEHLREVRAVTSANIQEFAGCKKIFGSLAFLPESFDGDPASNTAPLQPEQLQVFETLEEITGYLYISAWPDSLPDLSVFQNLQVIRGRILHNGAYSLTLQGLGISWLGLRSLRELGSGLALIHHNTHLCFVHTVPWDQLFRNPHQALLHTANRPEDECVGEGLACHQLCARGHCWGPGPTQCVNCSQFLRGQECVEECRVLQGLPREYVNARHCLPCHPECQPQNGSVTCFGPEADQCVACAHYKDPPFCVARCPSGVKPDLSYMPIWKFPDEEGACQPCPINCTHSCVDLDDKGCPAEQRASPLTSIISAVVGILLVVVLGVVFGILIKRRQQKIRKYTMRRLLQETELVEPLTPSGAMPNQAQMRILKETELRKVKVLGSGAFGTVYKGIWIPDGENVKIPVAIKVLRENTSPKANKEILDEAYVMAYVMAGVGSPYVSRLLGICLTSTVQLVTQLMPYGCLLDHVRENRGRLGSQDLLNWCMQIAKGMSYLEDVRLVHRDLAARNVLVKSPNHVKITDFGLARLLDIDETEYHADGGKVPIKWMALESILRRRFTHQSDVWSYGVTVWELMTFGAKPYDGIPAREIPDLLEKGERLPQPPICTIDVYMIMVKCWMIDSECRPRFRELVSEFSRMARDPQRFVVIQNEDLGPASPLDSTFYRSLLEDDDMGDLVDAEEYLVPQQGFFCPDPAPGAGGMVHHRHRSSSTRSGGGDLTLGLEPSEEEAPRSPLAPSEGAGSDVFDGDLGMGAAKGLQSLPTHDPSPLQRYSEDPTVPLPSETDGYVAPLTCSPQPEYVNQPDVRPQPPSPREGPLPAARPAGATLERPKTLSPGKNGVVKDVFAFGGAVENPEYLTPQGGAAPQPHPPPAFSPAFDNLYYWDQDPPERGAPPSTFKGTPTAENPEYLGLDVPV
reported-endpoint: IC50 (µM)
Reply with just the number (in µM).

# molecule, IC50 (µM)
measured = [
    ("Cc1cc(Nc2ncnc3cnc(N(C)C[C@@H]4COCCO4)nc23)ccc1Oc1ccc2c(c1)ncn2C", 0.0181),
    ("Cc1cc(Nc2ncnc3cnc(-c4ccncc4)nc23)ccc1Oc1ccc2c(c1)ncn2C [Example 47, bis(2,2,2-trifluoroacetate)]", 0.0134),
]

# molecule "Cn1cnc2cc(Oc3ccc(Nc4ncnc5cnc(N6C[C@H]7CC[C@@H]6CO7)nc45)cc3Cl)ccc21" ; its IC50 = 0.0247

Lab note: "Clc1cc(Nc2ncnc3cnc(N4CCO[C@H]5C[C@H]54)nc23)ccc1Oc1ccn2ncnc2c1" gave IC50 of 0.0915

Consider "FC(F)(F)[C@H]1CN(c2ncc3ncnc(Nc4ccc(Oc5ccn6ncnc6c5)c(Cl)c4)c3n2)CCN1" . Its measured IC50 is 0.0466

Short answer for "Cc1cc(Nc2ncnc3cnc(N(C)C[C@H]4COCCO4)nc23)ccc1Oc1ccc2c(c1)ncn2C" : IC50 was 0.0308

Item: "Cc1cc(Nc2ncnc3cnc(N(C)[C@H]4CCOC4)nc23)ccc1Oc1ccn2ncnc2c1" | IC50: 0.265

"Cc1cc(Nc2ncnc3cnc(N4CCC[C@H]4C(F)(F)F)nc23)ccc1Oc1ccc2c(c1)ncn2C" has a reported IC50 of 0.0374

Consider "N#C[C@H]1CCN(c2ncc3ncnc(Nc4ccc(Oc5ccn6ncnc6c5)c(Cl)c4)c3n2)C1" . Its measured IC50 is 0.264

###

biological target: ErbB2 insYVMA (HER2-YVMA, SEQ ID NO: 2) (Homo sapiens, UniProt P04626, INS775YVMA/P1170A); experiment: biochemical; settings: ErbB2 insYVMA enzyme assay; read-out: Assay 1 IC50
IC50 under 20 nM gets 1.0, anything at or over 20 nM gets 0.0.

Here are 10 molecules together with their reported answers.
# molecule, assigned-label
measured = [
    ("Cc1cc(Nc2ncnc3cnc(N4C[C@H]5CC[C@@H]4CO5)nc23)ccc1Oc1ccc2c(c1)ncn2C", 1.0),
    ("Cc1cc(Nc2ncnc3cnc(N4C[C@H](O)C(F)(F)C4)nc23)c(F)cc1Oc1ccc2c(c1)ncn2C", 0.0),
    ("CC(=O)O[C@H]1CN(c2ncc3ncnc(Nc4ccc(Oc5ccc6c(c5)ncn6C)c(C)c4)c3n2)C[C@H]1F", 0.0),
    ("Cc1cc(Nc2ncnc3cnc(NC4(C)CC4)nc23)ccc1Oc1ccc2c(c1)ncn2C", 0.0),
    ("Cc1cc(Nc2ncnc3cnc(N4CC5CC(C4)N5C)nc23)ccc1Oc1ccc2c(c1)ncn2C", 0.0),
    ("Cn1cnc2cc(Oc3ccc(Nc4ncnc5cnc(N6CCN[C@H](C(F)(F)F)C6)nc45)cc3Cl)ccc21", 0.0),
    ("Clc1cc(Nc2ncnc3cnc(N4CC[C@@]45CCOC5)nc23)ccc1Oc1ccn2ncnc2c1", 1.0),
    ("Cc1cc(Nc2ncnc3cnc(N4CCC[C@@](C)(O)C4)nc23)ccc1Oc1ccc2c(c1)ncn2C", 1.0),
    ("Cc1cc(Nc2ncnc3cnc(N(C)CC(O)C(F)(F)F)nc23)ccc1Oc1ccc2c(c1)ncn2C (stereo not drawn)", 0.0),
    ("Cc1cc(Nc2ncnc3cnc(N(C)[C@H]4C[C@H](O)C4)nc23)ccc1Oc1ccc2c(c1)ncn2C", 1.0),
]

Bench note: check whether "CO[C@H]1CCCN(c2ncc3ncnc(Nc4ccc(Oc5ccc6c(c5)ncn6C)c(C)c4)c3n2)C1" shows IC50 below 20 nM
0.0

Strictly below 20 nM in IC50? COc1ncc2ncnc(Nc3ccc(Oc4ccc5c(c4)ncn5C)c(C)c3)c2n1 [Example 8, 2,2,2-trifluoroacetate]
0.0
